Reported values of Kd for individual entries
Target: RSV postfusion F (postF), F ΔFP (Respiratory Syncytial Virus, UniProt P03420 26-513)
Test: BLI, IgG on anti-human IgG sensor, 100 nM antigen, 1:1 fit

BINDER | Kd
ADI-41493 (antibody, V domains shown, also called Ab 773; Antibody Number 773) VH: QVQLVQSGAEVKKPGESLKISCKGSGYSFTKYWIGWVRQLPGKGLEWMGIIYPGDSETIYSPSFQGQVTISADKSVSTAYLQWSSLKASDTAMYYCARQTFVFWGESHDAFDIWGQGTTVTVSS VL: QPVLTQPPSASGSPGQSVTISCTGTSSDVGAHNYVSWYQQHPGKAPKLMIYEVSKRPSGVPDRFSGSKSGNTASLTVSGLQAEDEADYYCSSYAGSNNWVFGGGTKLTVL | 0.372 nM
ADI-41472 (antibody, V domains shown) VH: QVQLVQSGAEVKKPGSSVKVSCKASGGTFSSYAISWVRQAPGQGLEWMGRIIPVLDITNYAQKFQGRVTIMADKSTSTAYMELSSLRSEDTAIYYCARETSNFYFYYNAMDVWGQGTTVTVSS VL: QPVLTQPPSASGSPGQSVTISCTGTSSDVGGDNYVSWYQQHPGKAPKLLIYEVSKRPSGVPDRFSGSRSGHTASLTVSGLQAEDEADYYCSSYAGRNNLGVFGGGTKLTVL | 1.06 nM
ADI-41548 (antibody, V domains shown, also called Ab 820; Antibody Number 820) VH: QVQLQQWGPGLVKPSETLSLTCTVSGASITSHYWSWLRQPAGKGLEWIGRFYPSGTTEKTPSLKSRVTLSVDTSKNHFSLKLTSVTAADTAVYYCARDSYDDIAGSYEYYFADWGQGTLVTVSS VL: EIVLTQSPATLSVSPGERATLSCRASQSVSSNLAWYQQKPGQAPRLLIYDISTRATGVPARFSGSGSGTEFTLTITSLQSEDFTVYYCQQYNNWPPTFGQGTKLEIK | 1.45 nM
ADI-41480 (antibody, V domains shown) VH: EVQLLESGPGLVRPSGTLSLTCTVSGDSISGSNWWAWVRQPPGRRLEWIGEIYYRGATDYNSSLKSRVIISVDNSKNQFSLNLRSVTAADTAIYYCARVEKFATSGYYISYFDYWGQGTLVTVSS VL: DIRVTQSPSSLSASVGDRVTITCRASQSISTYLNWYQHNPGKAPKLLIYAASSLQSGVPSRFSGSGSGTHFTLTISSLQPADFSTYYCQQSYSSPWTFGQGTKVEIK | 0.703 nM
ADI-41460 (antibody, V domains shown) VH: QVTLKESGPALVKPTQTLTLTCTFSGFSLNTRGMCVSWVRQPPGKALEWLARIDWDDDKNYSTSLRTRLTISKDTSRNQVVLAMANMDPVDTATYYCARCARYDRSGYYVWYLDSWGQGTLVTVSS VL: DIQMTQSPSSLSASVGDRVTITCRASQTIASYLNWYQQKPGKAPKLLIYVASTLQSGVPSRFSGSGSGTDFTLTISSLQPEDFATYYCQQSYSLTQWTFGQGTKVEIK | 0.632 nM
ADI-41528 (antibody, V domains shown, also called Ab 800; Antibody Number 800) VH: EVQLVESGGGVVQPGRSLRLSCAASGFTFSSYAMHWVRQAPGKGLEWVAVISFDGSSDYYADSVKGRFTISRDSSKNTLYLRMNSLRAEDTAVYYCARRAVEYSIYNNDAFDVWGQGTTVTVSS VL: SYELTQPPSVSVSPGQTASITCSGDKLGNKFTFWYQQKSGQSPVLVIYQETKRPSGIPERFSGSNSGNTATLTISGTQSMDEADYYCQAWDSSTAFFGGGTKLTVL | 0.348 nM
ADI-41540 (antibody, V domains shown) VH: QVQLQQWGAGLLKPSETLSLTCGVYGGSFTGYQWSWIRQSPGKGLEWIGDIDHGGNTNYRPSLKSRIITSVNMSKKEFSLKLASVTAADTAVYYCARGVGFLEFSGGPTGRRRNWFDSWGQGTLVTVSS VL: DIQLTQSPGTLSLSPGEGATLSCRASQSVGGSYLAWYQQRPGQAPRLLIYGASNRAADSPDRFSGSGSATDFTLTISRLEPEDFAVYYCQQYGSSPWTFGQGTKVEIK | 0.686 nM
ADI-41551 (antibody, V domains shown, also called Ab 823; Antibody Number 823) VH: QVQLQESGGGVVQPGGSLRLSCAASGFTFSRHWMHWVRQVPGKGLVWVSRINSDESTIDYADSVKGRFTISRDNAKNTLYLQMNSLRAEDTAVYYCVRDMVAVPGTTGGDYWGQGTLVTVSS VL: SYELTQPPSVSVSPGQTADITCSGDKLGDKYACWYQQRAGQSPILVLYQDTRRPSGIPERFSGSNSGDTATLTISGTQAMDEADYYCQAWDSSTAWVFGGGTKLTVL | 23.8 nM
ADI-41469 (antibody, V domains shown) VH: EVQLVESGGGVVQPGRSLRLSCAASGFTFSSYGMHWVRQAPGKGLEWVAVISYDGSFIKYADSMMGRFTISRDNSKNTLYLQMSSLRPEDTATYYCAKDALIPEYWGQGTLVTVSS VL: QPVLTQPASVSGSPGQSITISCTGTSSDVGGYNYVSWYQKHPDKAPRVIIYEVSNRPSGVSNRFSGSKSGNTASLTISGLQAEDEADYYCCSYTSTSGVVFGGGTKLTVL | 0.345 nM
ADI-41550 (antibody, V domains shown) VH: QVQLVQSGAEVKMPGASVRVSCKASGYTLGSHGITWVRQAPGQGLEWMGWISANNFNTHYAQKFQGRVTMTTDTSTSTAYMELRSLRSDDTAVYYCAREVMGHMVETISFDYWGQGTLVTVSS VL: QPVLTQPPSVSVAPGQTARITCGGNNIGSESVHWYQQKPGQAPVLVVHDDSDRPSGIPERFSGSNSGNTATLTISRVEAGDEADYYCQVWDFTPDHPVFGGGTKVTVL | 25.7 nM
